Each recorded value in this set is attributed to ChEMBL document CHEMBL2169776.

Each record here notes measured selectivity ratio.
- Method Description: Therapeutic index, ratio of HC10 for human erythrocyte cells to MIC for multidrug resistant bacterial strains
- Condition Notes: read-out: TI
Square brackets hold non-standard residues; d marks the D form. Peptide text beside a SMILES is read from it. Nphe = O=C(O)CNCc1ccccc1; Nlys = NCCCCNCC(=O)O

# Compound, selectivity ratio
data = [
    ("CC(=O)N[C@@H](CCCCN)C(=O)N(CC(=O)N[C@@H](CCCCN)C(=O)N(CC(=O)N[C@@H](CCCCN)C(=O)N(CC(=O)N[C@@H](CCCCN)C(=O)N(CC(=O)N[C@@H](CCCCN)C(=O)N(CC(=O)N[C@@H](CCCCN)C(=O)N(CC(=O)N[C@@H](CCCCN)C(=O)N(CC(=O)N[C@@H](CCCCN)C(=O)N(CC(N)=O)Cc1ccccc1)Cc1ccccc1)Cc1ccccc1)Cc1ccccc1)Cc1ccccc1)Cc1ccccc1)Cc1ccccc1)Cc1ccccc1 (Ac-K[Nphe]K[Nphe]K[Nphe]K[Nphe]K[Nphe]K[Nphe]K[Nphe]K[Nphe]-NH2)", "> 21"),
    ("CC(=O)N[C@@H](CCCCN)C(=O)N[C@@H](Cc1ccccc1)C(=O)N[C@@H](CCCCN)C(=O)N[C@@H](Cc1ccccc1)C(=O)N[C@@H](CCCCN)C(=O)N[C@@H](Cc1ccccc1)C(=O)N[C@@H](CCCCN)C(=O)N[C@@H](Cc1ccccc1)C(=O)N[C@@H](CCCCN)C(=O)N[C@@H](Cc1ccccc1)C(=O)N[C@@H](CCCCN)C(=O)N[C@@H](Cc1ccccc1)C(=O)N[C@@H](CCCCN)C(=O)N[C@@H](Cc1ccccc1)C(=O)N[C@@H](CCCCN)C(=O)N[C@@H](Cc1ccccc1)C(N)=O", "< 0.004"),
    ("CC(=O)N(CCCCN)CC(=O)N(CC(=O)N(CCCCN)CC(=O)N(CC(=O)N(CCCCN)CC(=O)N(CC(=O)N(CCCCN)CC(=O)N(CC(=O)N(CCCCN)CC(=O)N(CC(=O)N(CCCCN)CC(=O)N(CC(=O)N(CCCCN)CC(=O)N(CC(=O)N(CCCCN)CC(=O)N(CC(N)=O)Cc1ccccc1)Cc1ccccc1)Cc1ccccc1)Cc1ccccc1)Cc1ccccc1)Cc1ccccc1)Cc1ccccc1)Cc1ccccc1 (Ac-[Nlys][Nphe][Nlys][Nphe][Nlys][Nphe][Nlys][Nphe][Nlys][Nphe][Nlys][Nphe][Nlys][Nphe][Nlys][Nphe]-NH2)", "> 4"),
]

---

- Method Description: Therapeutic index, ratio of HC10 for human erythrocyte cells to MIC for multidrug resistant bacterial strains
- Condition Notes: read-out: TI
Observation Type: selectivity ratio

# Substance Smiles, Measured
data = [
    ("CC(=O)N[C@@H](CCCCN)C(=O)N[C@H](CC(=O)N[C@@H](CCCCN)C(=O)N[C@H](CC(=O)N[C@@H](CCCCN)C(=O)N[C@H](CC(=O)N[C@@H](CCCCN)C(=O)N[C@H](CC(=O)N[C@@H](CCCCN)C(=O)N[C@H](CC(=O)N[C@@H](CCCCN)C(=O)N[C@H](CC(=O)N[C@@H](CCCCN)C(=O)N[C@H](CC(=O)N[C@@H](CCCCN)C(=O)N[C@H](CC(N)=O)Cc1ccccc1)Cc1ccccc1)Cc1ccccc1)Cc1ccccc1)Cc1ccccc1)Cc1ccccc1)Cc1ccccc1)Cc1ccccc1", 1),
]

---

Each record here notes measured MIC.
- Tested on: Escherichia coli
- Method Description: Antibacterial activity against multidrug resistant ESBL producing Escherichia coli isolate after 16 to 20 hrs by broth microdilution assay
- Type: functional
Square brackets hold non-standard residues; d marks the D form. Peptide text beside a SMILES is read from it. Nlys = NCCCCNCC(=O)O

# Compound, MIC
records = [
    ("CC(=O)N[C@@H](CCCCN)C(=O)N(CCC(=O)N[C@@H](CCCCN)C(=O)N(CCC(=O)N[C@@H](CCCCN)C(=O)N(CCC(=O)N[C@@H](CCCCN)C(=O)N(CCC(=O)N[C@@H](CCCCN)C(=O)N(CCC(=O)N[C@@H](CCCCN)C(=O)N(CCC(=O)N[C@@H](CCCCN)C(=O)N(CCC(=O)N[C@@H](CCCCN)C(=O)N(CCC(N)=O)Cc1ccccc1)Cc1ccccc1)Cc1ccccc1)Cc1ccccc1)Cc1ccccc1)Cc1ccccc1)Cc1ccccc1)Cc1ccccc1", "4 µM"),
    ("CC(=O)N[C@@H](CCCCN)C(=O)N[C@@H](Cc1ccccc1)C(=O)N[C@@H](CCCCN)C(=O)N[C@@H](Cc1ccccc1)C(=O)N[C@@H](CCCCN)C(=O)N[C@@H](Cc1ccccc1)C(=O)N[C@@H](CCCCN)C(=O)N[C@@H](Cc1ccccc1)C(=O)N[C@@H](CCCCN)C(=O)N[C@@H](Cc1ccccc1)C(=O)N[C@@H](CCCCN)C(=O)N[C@@H](Cc1ccccc1)C(=O)N[C@@H](CCCCN)C(=O)N[C@@H](Cc1ccccc1)C(=O)N[C@@H](CCCCN)C(=O)N[C@@H](Cc1ccccc1)C(N)=O", "> 256 µM"),
    ("CC(=O)N(CCCCN)CC(=O)N[C@@H](Cc1ccccc1)C(=O)N(CCCCN)CC(=O)N[C@@H](Cc1ccccc1)C(=O)N(CCCCN)CC(=O)N[C@@H](Cc1ccccc1)C(=O)N(CCCCN)CC(=O)N[C@@H](Cc1ccccc1)C(=O)N(CCCCN)CC(=O)N[C@@H](Cc1ccccc1)C(=O)N(CCCCN)CC(=O)N[C@@H](Cc1ccccc1)C(=O)N(CCCCN)CC(=O)N[C@@H](Cc1ccccc1)C(=O)N(CCCCN)CC(=O)N[C@@H](Cc1ccccc1)C(N)=O (Ac-[Nlys]F[Nlys]F[Nlys]F[Nlys]F[Nlys]F[Nlys]F[Nlys]F[Nlys]F-NH2)", "16 µM"),
]
